Conditions: 323.15 K; 101.33 kPa; Liquid; Concentric cylinders viscometry

>  <cpd-smiles>
Cc1ccccc1

>  <viscosity (mPa·s)>
0.4421

$$$$
>  <cpd-smiles>
Cc1cccc(C)c1

>  <viscosity (mPa·s)>
0.4657

$$$$
>  <cpd-smiles>
Cc1ccc(C)cc1

>  <viscosity (mPa·s)>
0.4753

$$$$
>  <cpd-smiles>
Cc1ccccc1C

>  <viscosity (mPa·s)>
0.5757

$$$$

* * *

Catalogue of mass density values
Settings: 293.15 K; 101.33 kPa; Liquid; Vibrating tube method
± gives the expanded uncertainty stated by the source.
measurement-type: mass density

>  <cpd-smiles>
Cc1ccc(C)cc1

>  <result>
860.97 ± 1 kg/m3

$$$$
>  <cpd-smiles>
Cc1cccc(C)c1

>  <result>
864.27 ± 1 kg/m3

$$$$
>  <cpd-smiles>
Cc1ccccc1

>  <result>
866.84 ± 1 kg/m3

$$$$
>  <cpd-smiles>
Cc1ccccc1C

>  <result>
879.72 ± 1 kg/m3

$$$$
